The measurements presented in this section are drawn from paper PMC5540273.

# Tested on: EPHA3
# applied conditions: concentration: 1 μM, replicates: in singlicate; n = 1;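 also: KINOMEscan kinase panel screen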
quantity measured: %Inh (%)

compound=CS(=O)(=O)CCNCc1nc(-c2ccc3ncnc(Nc4ccc(OCc5ccccc5)c(Cl)c4)c3c2)cs1.Cl target_under_test=EPHA3 quantity_measured=%Inh value=0
compound=CSc1ccc(-c2nc3n(c2-c2ccncc2)CCC3)cc1 target_under_test=EPHA3 quantity_measured=%Inh value=5
compound=COc1cccc(C2=C(Nc3cc(Cl)c(O)c(Cl)c3)C(=O)NC2=O)c1 target_under_test=EPHA3 quantity_measured=%Inh value=0
compound=Cn1cnc2c(N)ncnc21 target_under_test=EPHA3 quantity_measured=%Inh value=0
compound="COC(=O)c1cccc(NC(=O)NC2CCN(c3ccnc(Nc4ccc(F)cc4)n3)C2)c1 (stereo not drawn)" target_under_test=EPHA3 quantity_measured=%Inh value=0
compound=Cc1ccc(NC(=O)Nc2ccc(Cl)cc2)cc1-c1ccc(C(=O)Nc2ccncc2)cc1 target_under_test=EPHA3 quantity_measured=%Inh value=0
compound=Cc1ccccc1-c1cc(-c2c[nH]nc2-c2ccccn2)ccn1 target_under_test=EPHA3 quantity_measured=%Inh value=0
compound=Cc1ccc(NC(=O)Nc2ccccc2)cc1-c1ccc(C(=O)Nc2ccncc2)cc1 target_under_test=EPHA3 quantity_measured=%Inh value=4
compound=Cl.Cl.Cl.N#Cc1ccc(CCNc2nccc(-c3cccc(CN4CCNCC4)c3)n2)cc1 target_under_test=EPHA3 quantity_measured=%Inh value=14
compound=CS(=O)(=O)CCNCc1nc(-c2ccc3ncnc(Nc4ccc5c(cnn5Cc5ccccc5)c4)c3c2)cs1.Cl.Cl target_under_test=EPHA3 quantity_measured=%Inh value=0
compound=Nc1nccc(-c2c(-c3ccc(F)cc3)ncn2C2CCN(Cc3ccccc3)CC2)n1 target_under_test=EPHA3 quantity_measured=%Inh value=0
compound="COC(=O)C(Cc1ccccc1)NC(=O)NC1CCN(c2ccnc(Nc3ccc(F)cc3)n2)C1 (stereo not drawn)" target_under_test=EPHA3 quantity_measured=%Inh value=4
compound=COc1ccc2cc(-c3nc(-c4ccccc4C(C)C)[nH]c3-c3ccncc3)ccc2c1 target_under_test=EPHA3 quantity_measured=%Inh value=0
compound=Cc1ccccc1Cn1ccn2c(=O)cc(N3CCOCC3)nc12 target_under_test=EPHA3 quantity_measured=%Inh value=0
compound=O=C(Nc1n[nH]c2nc(-c3cccs3)c(Br)cc12)C1CCCC1 target_under_test=EPHA3 quantity_measured=%Inh value=0
compound=O=C1NC(=O)C(c2ccc(Cl)cc2)=C1Nc1ccc(O)cc1 target_under_test=EPHA3 quantity_measured=%Inh value=0
compound=O=c1cc(N2CCOCC2)nc2n(Cc3ccccc3F)ccn12 target_under_test=EPHA3 quantity_measured=%Inh value=0
compound=COc1nccc(-c2c(-c3ccc(F)cc3)ncn2CCCN2CCOCC2)n1 target_under_test=EPHA3 quantity_measured=%Inh value=10

###

Here the recorded %Inh is given for each entry.
# Test system: RSK4(Kin.Dom.2-C-terminal)
# Construct: gene RPS6KA6
# applied conditions: concentration: 1 μM, replicates: in singlicate; n = 1
quantity measured: %Inh

compound=Cc1nccc(-c2c(-c3ccc(F)cc3)ncn2CCCN2CCOCC2)n1.Cl value=6%
compound=CC(C)c1ccc(O)cc1Nc1ccnc2ccc(C(F)(F)F)cc12 value=0%
compound="COC(=O)C(Cc1ccccc1)NC(=O)NC1CCN(c2ccnc(Nc3ccc(F)cc3)n2)C1 (centres unmarked)" value=9%
compound=O=C(Nc1n[nH]c2nc(-c3cccs3)c(Br)cc12)C1CCCC1 value=0%
compound=COc1ccc(CSc2nnc(-c3ccc4ncsc4c3)o2)cc1C(F)(F)F value=9%
